# Tested on: Acinetobacter baumannii ATCC17961
# experimentDescription: Antimicrobial susceptibility testing: 90% growth inhibitory concentration (IC90) determination in Iso-Sensitest broth, OD600 growth
# Format: cell-based
# conditionParameters: Acinetobacter baumannii, ATCC17961, 16 h, strain ATCC 17961, OD600 growth over 16 h, read-out: A. baumannii ATCC 17961 IC90
Structures can show the parent of a compound that is named as a salt.
Exercise: for every item that follows, state its recorded log10 IC90.
Annotation: log10 of IC90, nM basis.

Inquiry: Output measured log10 IC90 for this item: C#CCn1cc(-c2cnc3c(Nc4ccc(C(=O)N[C@H](C)CN)c(CC)c4)nccn23)c(C(F)(F)F)n1
Reply text: 2.35

Inquiry: Output measured log10 IC90 for this item: CCc1cc(Nc2nccn3c(-c4cn(CC(F)F)nc4C(F)F)cnc23)ccc1C(=O)N1CCN(C(=O)[C@H]2C[C@H](N)C2)CC1
Reply text: 2.73

Inquiry: Output measured log10 IC90 for this item: O=C(NC1CCCNC1)c1ccc(Nc2nccn3c(-c4c[nH]nc4C(F)(F)F)cnc23)cc1Cl (stereo not shown)
Reply text: 3.61

Inquiry: Output measured log10 IC90 for this item: Cc1cc(Nc2nccn3c(-c4cn(CC5CC5)nc4C(F)(F)F)cnc23)ccc1S(C)(=O)=NCCCN (stereo not shown)
Reply text: 2.12

Inquiry: Output measured log10 IC90 for this item: CC1(O)CN(C(=O)c2ccc(Nc3nccn4c(-c5cn(CC#N)nc5C(F)(F)F)cnc34)cc2Cl)C1
Reply text: 2.52

Inquiry: Output measured log10 IC90 for this item: CCc1cc(Nc2nccn3c(-c4cn(C(F)F)nc4C(F)(F)F)cnc23)ccc1C(=O)NCCNC(=O)[C@@H]1CCCN1
Reply text: 2.54

Inquiry: Output measured log10 IC90 for this item: CCc1cc(Nc2nccn3c(-c4c[nH]nc4C(F)(F)F)cnc23)ccc1C(=O)N1CCC(CN)CC1 [Example 372, hydrochloride]
Reply text: 2.98

* * *

# Test system: Acinetobacter baumannii ATCC17961
# experimentDescription: Antimicrobial susceptibility testing: 90% growth inhibitory concentration (IC90) determination in Iso-Sensitest broth, OD600 growth
# Type: cell-based
# conditionParameters: Acinetobacter baumannii, ATCC17961, 16 h, strain ATCC 17961, OD600 growth over 16 h, read-out: A. baumannii ATCC 17961 IC90
Exercise: for every item that follows, state its recorded IC90.
Express your answer in nM, writing the number without its unit.

Inquiry: Provide Acinetobacter baumannii ATCC17961 IC90 reading for NCC(=O)N1CCN(C(=O)c2ccc(Nc3nccn4c(-c5cn(CC(F)F)nc5C(F)(F)F)cnc34)cc2Cl)CC1 .
Reply text: 159

Inquiry: Provide Acinetobacter baumannii ATCC17961 IC90 reading for NCC(=O)N1CCN(C(=O)c2ccc(Nc3nccn4c(-c5cn(C(F)F)nc5C(F)(F)F)cnc34)cc2Cl)CC1 .
Reply text: 161

Inquiry: Provide Acinetobacter baumannii ATCC17961 IC90 reading for CCc1cc(Nc2nccn3c(-c4cn(CC#N)nc4C(F)(F)F)cnc23)ccc1C(=O)NCCCCCCN .
Reply text: 170

Inquiry: Provide Acinetobacter baumannii ATCC17961 IC90 reading for C#CCn1cc(-c2cnc3c(Nc4ccc(C(=O)N5CCN(C(=O)[C@H]6C[C@H](N)C6)CC5)c(CC)c4)nccn23)c(C(F)F)n1 .
Reply text: 489

* * *

# System: Acinetobacter baumannii ATCC17961
# experimentDescription: Antimicrobial susceptibility testing: 90% growth inhibitory concentration (IC90) determination in Iso-Sensitest broth, OD600 growth
# Assay type: cell-based
# conditionParameters: Acinetobacter baumannii, ATCC17961, 16 h, strain ATCC 17961, OD600 growth over 16 h, read-out: A. baumannii ATCC 17961 IC90
Counter-ions that a name gives are not always drawn.
resultType: IC90 (nM)
Express your answer in nM, writing the number without its unit.

Inquiry: Output measured IC90 for this item: CCc1cc(Nc2nccn3c(-c4cn(CCF)nc4C(F)(F)F)cnc23)ccc1C(=O)N[C@@H](C)CN [Example 65]
Reply text: 339

Inquiry: Output measured IC90 for this item: CCc1cc(Nc2nccn3c(-c4c[nH]nc4C(F)(F)F)cnc23)ccc1C(=O)NCCNC(=O)N1CCC(N)CC1 [Example 568]
Reply text: 460

Inquiry: Output measured IC90 for this item: CCc1cc(Nc2nccn3c(-c4cn(Cc5ccncn5)nc4C(F)(F)F)cnc23)ccc1C(=O)NCCOCCN [Example 2]
Reply text: 513

Inquiry: Output measured IC90 for this item: Cc1cc(Nc2nccn3c(-c4cn(CC#N)nc4C(F)(F)F)cnc23)cc(F)c1C(=O)N1CCNCC1 [Example 77]
Reply text: 3290

Inquiry: Output measured IC90 for this item: CCc1cc(Nc2nccn3c(-c4c[nH]nc4C(F)(F)F)cnc23)ccc1C(=O)NCC(=O)N1CCNCC1 [Example 753]
Reply text: 659

Inquiry: Output measured IC90 for this item: N#CCn1cc(-c2cnc3c(Nc4ccc(C(=O)NCC(=O)NC5CC(N)C5)c(Cl)c4)nccn23)c(C(F)(F)F)n1 (centres unmarked) [Example 660]
Reply text: 277

Inquiry: Output measured IC90 for this item: N[C@H]1CCN(C(=O)CNC(=O)c2ccc(Nc3nccn4c(-c5c[nH]nc5C(F)(F)F)cnc34)cc2Cl)C1 [Example 164]
Reply text: 1930

Inquiry: Output measured IC90 for this item: CCc1cc(Nc2nccn3c(-c4c[nH]nc4C(F)(F)F)cnc23)ccc1C(=O)NCCCCCN [Example 319, hydrochloride]
Reply text: 438

Inquiry: Output measured IC90 for this item: CCc1cc(Nc2nccn3c(-c4c[nH]nc4C(F)(F)F)cnc23)ccc1C(=O)NCC1CC1N (centres unmarked) [Example 776]
Reply text: 1010

Inquiry: Output measured IC90 for this item: N[C@H]1CCN(C(=O)c2ccc(Nc3nccn4c(-c5c[nH]nc5C(F)(F)F)cnc34)cc2Cl)C1 [Example 320]
Reply text: 705

Inquiry: Output measured IC90 for this item: N#CCn1cc(-c2cnc3c(Nc4ccc(C(=O)NCCNCC(=O)NCCN)c(Cl)c4)nccn23)c(C(F)(F)F)n1 [Example 815]
Reply text: 180

Inquiry: Output measured IC90 for this item: CCc1cc(Nc2nccn3c(-c4cn(CC(F)F)nc4C(F)(F)F)cnc23)ccc1C(=O)NCCCN [Example 52]
Reply text: 144

Inquiry: Output measured IC90 for this item: N#CCn1cc(-c2cnc3c(Nc4ccc(C(=O)N5CC(NC(=O)N[C@H]6CCNC6)C5)c(Cl)c4)nccn23)c(C(F)(F)F)n1 [Example 172]
Reply text: 832

Inquiry: Output measured IC90 for this item: Cc1cc(Nc2nccn3c(-c4c[nH]nc4C(F)(F)F)cnc23)cc(F)c1C(=O)NCCOCCN [Example 80]
Reply text: 737

* * *

Exercise: for every item that follows, state its recorded log10 of IC90.
# System: Acinetobacter baumannii ATCC17961
# experimentDescription: Antimicrobial susceptibility testing: 90% growth inhibitory concentration (IC90) determination in Iso-Sensitest broth, OD600 growth
# Assay type: cell-based
# conditionParameters: Acinetobacter baumannii, ATCC17961, 16 h, strain ATCC 17961, OD600 growth over 16 h, read-out: A. baumannii ATCC 17961 IC90
Annotation: log10 of IC90, nM basis.

Inquiry: Output measured log10 of IC90 for this item: Cc1cc(Nc2nccn3c(-c4c[nH]nc4C(F)(F)F)cnc23)ccc1C(=O)N1CCN(C(=O)[C@@H](C)N)CC1 [Example 334]
Reply text: 2.89

Inquiry: Output measured log10 of IC90 for this item: CCc1cc(Nc2nccn3c(-c4cn(CC(F)F)nc4C(F)F)cnc23)ccc1C(=O)N[C@H]1C[C@@H](N)C1 [Example 539]
Reply text: 2.66

Inquiry: Output measured log10 of IC90 for this item: N[C@H]1C[C@@H](NC(=O)N2CCN(C(=O)c3ccc(Nc4nccn5c(-c6cn(CC(F)F)nc6C(F)(F)F)cnc45)cc3Cl)CC2)C1 [Example 585]
Reply text: 2.51

Inquiry: Output measured log10 of IC90 for this item: O=C(NC1CCCN(C(=O)[C@H]2C[C@H](O)CN2)C1)c1ccc(Nc2nccn3c(-c4c[nH]nc4C(F)(F)F)cnc23)cc1Cl (mixture of isomers) [Example 387]
Reply text: 3.68

Inquiry: Output measured log10 of IC90 for this item: CCc1cc(Nc2nccn3c(-c4cn(CCC(C)(C)Cl)nc4C(F)(F)F)cnc23)ccc1C(=O)NCCOCCN [Example 655]
Reply text: 2.42

Inquiry: Output measured log10 of IC90 for this item: C=CCn1cc(-c2cnc3c(Nc4ccc(C(=O)NCCOCCN)c(CC)c4)nccn23)c(C(F)F)n1 [Example 121]
Reply text: 2.30

Inquiry: Output measured log10 of IC90 for this item: NCCCNC(=O)c1ccc(Nc2nccn3c(-c4c[nH]nc4C(F)(F)F)cnc23)cc1Cl [Example 364]
Reply text: 3.05
